experiment: Plasma pharmacokinetics in mice (LC/MS/MS); assay type: in vivo, Female BALB/c mice; conditions: female, BALB/c, mouse; mice, oral 50 mg kg^−1, plasma; read-out: time of maximum concentration after administration
Measurement Type: Tmax (h)
Quick reminder: number only, in h, skip the unit.

Req: Name the recorded Tmax for O=c1cc(N2CCOCC2)oc2c1ccc1ccccc12 [NU7026, 2-(morpholin-4-yl)-benzo[H]chromen-4-one] .
Resp: 1

###

test: Plasma pharmacokinetics in mice (LC/MS/MS); format: in vivo, Female BALB/c mice; details: female, BALB/c, mouse, plasma, intraperitoneal; mice, i.p. 20 mg kg^−1, assuming linear i.v. pharmacokinetics
Measurement Type: bioavailability (%)
Hi! Could you send only the number? It should be in %, unit omitted.

Req: For the compound O=c1cc(N2CCOCC2)oc2c1ccc1ccccc12 [NU7026, 2-(morpholin-4-yl)-benzo[H]chromen-4-one] , what bioavailability is on record?
Resp: 20
